species on record: Rattus norvegicus; assay: Open TG-GATES - Regimen: Daily Repeat; format: toxicity, organism-based, Sprague-Dawley; parameters: regimen Daily Repeat, gender Male, age 6 weeks; conditions: in vivo, po, 1000 mg/kg, […], tissue Blood, route gavage, dose level High, time 14 day
Hi there, I'd appreciate the recorded Hb for every entry that follows.
One number for each entry, in g/dL.

CNC(=C[N+](=O)[O-])NCCSCc1ccc(CN(C)C)o1 = 14.5

Kindly consider the entry below.
Give recorded Hb. O=C(OC[C@H]1O[C@@H](OC(=O)c2cc(O)c(O)c(OC(=O)c3cc(O)c(O)c(O)c3)c2)[C@H](OC(=O)c2cc(O)c(O)c(OC(=O)c3cc(O)c(O)c(O)c3)c2)[C@@H](OC(=O)c2cc(O)c(O)c(OC(=O)c3cc(O)c(O)c(O)c3)c2)[C@@H]1OC(=O)c1cc(O)c(O)c(OC(=O)c2cc(O)c(O)c(O)c2)c1)c1cc(O)c(O)c(OC(=O)c2cc(O)c(O)c(O)c2)c1 14.5

====

species on record: Rattus norvegicus; experiment: Open TG-GATES - Regimen: Single; format: toxicity, organism-based, Sprague-Dawley; parameters: regimen Single, gender Male, age 6 weeks; settings: in vivo, po, 100 mg/kg, 24 h, tissue Blood, route gavage, dose level Low
assay-metric: Ht (%)
Numbers only, in %.

CN/C(=N/CCSCc1nc[nH]c1C)NC#N [CIMETIDINE] = 37.8
COC(=O)C1=C(C)NC(C)=C(C(=O)OC)C1c1ccccc1[N+](=O)[O-] [NIFEDIPINE] = 40.5
O=C(OC[C@H]1O[C@@H](OC(=O)c2cc(O)c(O)c(OC(=O)c3cc(O)c(O)c(O)c3)c2)[C@H](OC(=O)c2cc(O)c(O)c(OC(=O)c3cc(O)c(O)c(O)c3)c2)[C@@H](OC(=O)c2cc(O)c(O)c(OC(=O)c3cc(O)c(O)c(O)c3)c2)[C@@H]1OC(=O)c1cc(O)c(O)c(OC(=O)c2cc(O)c(O)c(O)c2)c1)c1cc(O)c(O)c(OC(=O)c2cc(O)c(O)c(O)c2)c1 [TANNIC ACID] = 38.4
CNC(=C[N+](=O)[O-])NCCSCc1ccc(CN(C)C)o1 [RANITIDINE] = 39.7

Kindly consider the entry below.
Give recorded Ht. Cc1nnc2n1-c1ccc(Cl)cc1C(c1ccccc1Cl)=NC2 [TRIAZOLAM] 40.5

====

species on record: Rattus norvegicus; experiment: Open TG-GATES - Regimen: Single; format: toxicity, organism-based, Sprague-Dawley; design: regimen Single, gender Male, age 6 weeks; details: in vivo, po, 300 mg/kg, 6 h, tissue Plasma, route gavage, dose level Middle
Label label 0 if AST falls below 70 IU/L; label label 1 in every other case.

Field: example entries. Status: answers known.
COC(=O)C1=C(C)NC(C)=C(C(=O)OC)C1c1ccccc1[N+](=O)[O-] [NIFEDIPINE] = label 1
Cc1nnc2n1-c1ccc(Cl)cc1C(c1ccccc1Cl)=NC2 [TRIAZOLAM] = label 0

We next turn to a different molecule, shown below.
AST >= 70 IU/L for O=C(OC[C@H]1O[C@@H](OC(=O)c2cc(O)c(O)c(OC(=O)c3cc(O)c(O)c(O)c3)c2)[C@H](OC(=O)c2cc(O)c(O)c(OC(=O)c3cc(O)c(O)c(O)c3)c2)[C@@H](OC(=O)c2cc(O)c(O)c(OC(=O)c3cc(O)c(O)c(O)c3)c2)[C@@H]1OC(=O)c1cc(O)c(O)c(OC(=O)c2cc(O)c(O)c(O)c2)c1)c1cc(O)c(O)c(OC(=O)c2cc(O)c(O)c(O)c2)c1 [TANNIC ACID] ? label 0
